Values compiled from patent US20110159022A1.

# testedTarget: HLA-DR4 (DRB1*0401) (human)
# assayInfo: competition ELISA, tracer biotin-HA 306-318
Some binders, each annotated with its measured relative binding activity.

Fill in relative binding activity for record LLALTSAVAKKKDKV (synthetic 15-mer of the human midkine precursor; also called MDK4; peptide 14-28) [MDK 14-28]
401 IC50 ratio to reference peptide

For the binder LTLLALLALTSAVAK (synthetic 15-mer of the human midkine precursor; also called MDK3; peptide 9-23) [MDK 9-23] , give its reported relative binding activity.
1 IC50 ratio to reference peptide

Report relative binding activity, nothing else, for this binder: AEWAWGPCTPSSKDC (also called MDK7) [MDK 38-52]
1860 IC50 ratio to reference peptide

Supply reported relative binding activity belonging to this binder: ARYNAQCQETIRVTK (synthetic 15-mer of the human midkine precursor; also called MDK17) [MDK 110-124]
6 IC50 ratio to reference peptide
